# test: chemical genetic growth profiling, strain panel (AID 1159580);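 also: tested at 20 µM; growth read once vehicle control cultures reached saturation at 30 °C; 1 = growth at the plate median or of vehicle wells; lower values mean less growth of the strain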
# condition-set: S. cerevisiae deletion strains, growth OD, locus YOR270C, strain vph1, hits give low values
Out of some 5,500 compounds screened, about 2,000 (36%) were called active. Not shown: some 18% with an inconclusive outcome. The list shows a part of the results.

>  <molecule>
CC1(C)O[C@@H]2CC3C4CCC5=CC(=O)C=C[C@]5(C)C4[C@@H](O)C[C@]3(C)[C@]2(C(=O)CO)O1 (stereo partly specified)

>  <normalized growth>
1.03

$$$$
>  <molecule>
O=C(O)c1ccc2c(c1)OCO2

>  <normalized growth>
1.05

$$$$
>  <molecule>
CCOC(N)=O

>  <normalized growth>
1

$$$$
>  <molecule>
NCc1ccc(S(N)(=O)=O)cc1

>  <normalized growth>
1.06

$$$$
>  <molecule>
Nc1ccc(S(=O)(=O)Nc2nccs2)cc1

>  <normalized growth>
1.03

$$$$
>  <molecule>
CCOC(=O)CCCCCCCCCCCCC1C=CCC1 (stereo unspecified)

>  <normalized growth>
1.01

$$$$
>  <molecule>
O=C(O)CCCCC1SCC2NC(=O)NC21 (stereo unspecified)

>  <normalized growth>
1.01

$$$$
>  <molecule>
CC[C@]1(O)CC2CN(CCc3c([nH]c4ccccc34)[C@@](C(=O)OC)(c3cc4c(cc3OC)N(C=O)[C@H]3[C@@](O)(C(=O)OC)[C@H](OC(C)=O)[C@]5(CC)C=CCN6CC[C@]43[C@@H]65)C2)C1 (stereo partly specified)

>  <normalized growth>
1.04

$$$$
>  <molecule>
Nc1nccs1

>  <normalized growth>
0.638

$$$$
>  <molecule>
CC1=CC(=O)CC(C)(C)C1(O)/C=C/C(C)=C\C(=O)O (stereo unspecified)

>  <normalized growth>
1.08

$$$$
>  <molecule>
CCn1cc(C(=O)O)c(=O)c2ccc(C)nc21

>  <normalized growth>
1.08

$$$$
>  <molecule>
CC1=C(/C=C/C(C)=C/C=C/C(C)=C\C(=O)O)C(C)(C)CCC1

>  <normalized growth>
0.835

$$$$
>  <molecule>
CN(Cc1cc(Br)cc(Br)c1N)C1CCCCC1

>  <normalized growth>
0.811

$$$$
>  <molecule>
CCn1cc(C(=O)O)c(=O)c2cc3c(cc21)OCO3

>  <normalized growth>
0.957

$$$$
>  <molecule>
COc1ccc(-c2cc(C(F)F)nn2-c2ccc(S(N)(=O)=O)cc2)cc1F

>  <normalized growth>
0.976

$$$$
>  <molecule>
COC(=O)[C@H]1[C@H]2C[C@@H]3c4[nH]c5cc(OC)ccc5c4CCN3C[C@H]2C[C@@H](OC(=O)c2cc(OC)c(OC)c(OC)c2)[C@@H]1OC

>  <normalized growth>
0.969

$$$$
>  <molecule>
O=C(O)c1cc(=O)c(O)c2c(O)c(O)c(O)cc2c1

>  <normalized growth>
0.198

$$$$
>  <molecule>
O=C(O)c1cc(O)c(O)c(O)c1

>  <normalized growth>
1.17

$$$$
>  <molecule>
COc1cc(C)c2c(c1C=O)Oc1c(c(C)c(O)c3c1C(O)OC3=O)OC2=O (stereo unspecified)

>  <normalized growth>
1.15

$$$$
>  <molecule>
O=C(NC(Cc1cc(=O)[nH]c2ccccc12)C(=O)O)c1ccc(Cl)cc1 (stereo unspecified)

>  <normalized growth>
1.03

$$$$
>  <molecule>
O=C(O)c1cc(=O)c(O)c2c(O)c(O)ccc2c1

>  <normalized growth>
1.01

$$$$
>  <molecule>
CCOc1ccc2c(c1)C(C)=CC(C)(C)N2

>  <normalized growth>
1

$$$$
>  <molecule>
CC1=C(/C=C/C(C)=C/C=C/C(C)=C/CO)C(C)(C)CCC1

>  <normalized growth>
0.848

$$$$
>  <molecule>
CC(=O)O[C@H]1C[C@@H](OC(C)=O)C(C)(C)C2C[C@@H](OC(C)=O)[C@]3(C)C(CC[C@@]4(C)[C@H](c5ccoc5)C(=O)[C@H]5O[C@]543)[C@]21C (stereo partly specified)

>  <normalized growth>
0.875

$$$$
>  <molecule>
CC1=C(/C=C/C(C)=C/C=C/C(C)=C/C(=O)O)C(C)(C)CCC1

>  <normalized growth>
0.926

$$$$
>  <molecule>
c1cc2c(cc1[C@H]1OC[C@H]3[C@@H]1CO[C@H]3c1ccc3c(c1)OCO3)OCO2

>  <normalized growth>
0.639

$$$$
